Molecular target: Factor X (FX), P00742
Sequence (P00742 whole entry, looked up): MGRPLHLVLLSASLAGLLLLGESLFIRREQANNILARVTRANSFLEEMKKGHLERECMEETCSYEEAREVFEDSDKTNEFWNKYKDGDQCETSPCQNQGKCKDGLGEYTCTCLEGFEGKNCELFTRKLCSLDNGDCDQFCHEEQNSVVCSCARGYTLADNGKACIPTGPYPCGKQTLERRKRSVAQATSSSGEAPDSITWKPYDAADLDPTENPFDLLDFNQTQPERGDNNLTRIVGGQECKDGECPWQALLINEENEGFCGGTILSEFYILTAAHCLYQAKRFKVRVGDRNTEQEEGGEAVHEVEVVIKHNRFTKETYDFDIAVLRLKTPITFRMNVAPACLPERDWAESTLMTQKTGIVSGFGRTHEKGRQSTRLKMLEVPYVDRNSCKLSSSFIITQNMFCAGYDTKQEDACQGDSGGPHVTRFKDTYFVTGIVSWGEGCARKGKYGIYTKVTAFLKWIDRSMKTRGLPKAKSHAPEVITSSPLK
Hi there, I'd appreciate the recorded kcat/KM for every entry that follows.
One number for each entry, in M⁻¹ s⁻¹.

protein="FIXa-Y155F/K247N/N249S/R318Y/T343R/R403E/E410N (protein) chain 1: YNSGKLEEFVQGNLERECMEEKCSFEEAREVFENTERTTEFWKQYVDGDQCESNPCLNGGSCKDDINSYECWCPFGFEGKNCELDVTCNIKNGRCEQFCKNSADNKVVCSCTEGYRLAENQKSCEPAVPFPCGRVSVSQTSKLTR chain 2: VVGGEDAKPGQFPWQVVLNGKVDAFCGGSIVNEKWIVTAAHCVETGVKITVVAGEHNIEETEHTEQNRSVIRIIPHHNYNAAINKYNHDIALLELDEPLVLNSYVTPICIADKEYTNIFLKFGSGYVSGWGRVFHKGYSALVLQYLRVPLVDRATCLRSTKFRIYNNMFCAGFHEGGRDSCQGDSGGPHVTEVEGTSFLTGIISWGEECAMKGKYGIYTKVSEYVNWIKNKTKLT" measurement_unit="M⁻¹ s⁻¹" measured_result=1.6e+08
protein="FIXa-R318Y/R338E/E410N/T412V (protein) chain 1: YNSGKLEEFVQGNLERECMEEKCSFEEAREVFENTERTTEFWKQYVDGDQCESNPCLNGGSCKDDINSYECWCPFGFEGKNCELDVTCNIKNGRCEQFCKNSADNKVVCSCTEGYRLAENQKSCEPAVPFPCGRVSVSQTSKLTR chain 2: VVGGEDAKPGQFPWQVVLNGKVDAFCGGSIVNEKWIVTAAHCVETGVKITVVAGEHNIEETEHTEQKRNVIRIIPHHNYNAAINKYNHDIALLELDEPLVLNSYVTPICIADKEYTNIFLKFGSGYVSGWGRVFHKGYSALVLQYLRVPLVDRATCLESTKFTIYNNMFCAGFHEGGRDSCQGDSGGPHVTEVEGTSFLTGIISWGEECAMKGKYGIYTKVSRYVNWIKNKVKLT" measurement_unit="M⁻¹ s⁻¹" measured_result=2.4e+08
protein="FIXa-K228N/K247N/N249S/R318Y/R338E/T343R/E410N (protein) chain 1: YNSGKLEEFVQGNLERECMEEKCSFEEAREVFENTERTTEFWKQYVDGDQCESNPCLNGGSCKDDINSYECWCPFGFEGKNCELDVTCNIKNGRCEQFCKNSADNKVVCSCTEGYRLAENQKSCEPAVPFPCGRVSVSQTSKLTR chain 2: VVGGEDAKPGQFPWQVVLNGKVDAFCGGSIVNEKWIVTAAHCVETGVNITVVAGEHNIEETEHTEQNRSVIRIIPHHNYNAAINKYNHDIALLELDEPLVLNSYVTPICIADKEYTNIFLKFGSGYVSGWGRVFHKGYSALVLQYLRVPLVDRATCLESTKFRIYNNMFCAGFHEGGRDSCQGDSGGPHVTEVEGTSFLTGIISWGEECAMKGKYGIYTKVSRYVNWIKNKTKLT" measurement_unit="M⁻¹ s⁻¹" measured_result=1.3e+08

Let us examine a further case.
// query Entry under review: FIXa-R318Y/R338E/R403E/E410N/T412V (protein) chain 1: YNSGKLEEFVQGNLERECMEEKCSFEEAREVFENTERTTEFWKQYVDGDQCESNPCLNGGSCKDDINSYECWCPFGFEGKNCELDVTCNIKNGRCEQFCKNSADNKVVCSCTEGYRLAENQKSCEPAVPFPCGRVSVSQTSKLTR chain 2: VVGGEDAKPGQFPWQVVLNGKVDAFCGGSIVNEKWIVTAAHCVETGVKITVVAGEHNIEETEHTEQKRNVIRIIPHHNYNAAINKYNHDIALLELDEPLVLNSYVTPICIADKEYTNIFLKFGSGYVSGWGRVFHKGYSALVLQYLRVPLVDRATCLESTKFTIYNNMFCAGFHEGGRDSCQGDSGGPHVTEVEGTSFLTGIISWGEECAMKGKYGIYTKVSEYVNWIKNKVKLT . Reported kcat/KM?
// result 1.9e+08
